# target-under-test: PARP1 ΔART (UniProt P09874 1-786)
# Sequence (P09874 1-786, stated change not applied): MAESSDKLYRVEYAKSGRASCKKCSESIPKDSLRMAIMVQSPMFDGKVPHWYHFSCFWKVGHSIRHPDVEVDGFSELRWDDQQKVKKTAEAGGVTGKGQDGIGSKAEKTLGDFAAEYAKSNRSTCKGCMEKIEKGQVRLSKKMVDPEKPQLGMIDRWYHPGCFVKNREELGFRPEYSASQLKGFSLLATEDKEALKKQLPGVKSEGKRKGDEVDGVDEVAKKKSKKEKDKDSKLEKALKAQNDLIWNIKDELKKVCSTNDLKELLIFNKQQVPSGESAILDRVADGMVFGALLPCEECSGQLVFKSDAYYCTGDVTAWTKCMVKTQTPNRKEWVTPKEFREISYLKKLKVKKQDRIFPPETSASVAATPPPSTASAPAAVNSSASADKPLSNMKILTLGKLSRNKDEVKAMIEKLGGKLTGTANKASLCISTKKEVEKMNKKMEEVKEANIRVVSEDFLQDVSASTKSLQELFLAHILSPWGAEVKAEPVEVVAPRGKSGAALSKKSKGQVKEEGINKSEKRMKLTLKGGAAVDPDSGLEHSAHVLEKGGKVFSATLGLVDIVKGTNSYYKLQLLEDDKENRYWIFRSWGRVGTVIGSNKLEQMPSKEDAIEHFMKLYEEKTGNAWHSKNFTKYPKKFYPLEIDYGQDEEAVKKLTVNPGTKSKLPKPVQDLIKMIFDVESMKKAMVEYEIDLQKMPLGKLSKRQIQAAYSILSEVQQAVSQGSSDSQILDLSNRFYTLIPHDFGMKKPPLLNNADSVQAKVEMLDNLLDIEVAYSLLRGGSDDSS
# assay: fluorescence polarization
reported-metric: Kd (nM)
I only need the number, in nM, no unit after it.

Recorded Kd (binder 18-bp DSB duplex (dsDNA) DNA 1: GGGTTGCGGCCGCTTGGG DNA 2: CCCAAGCGGCCGCAACCC ): 15.4
